B1: HDV Ribozyme (parent)
chain: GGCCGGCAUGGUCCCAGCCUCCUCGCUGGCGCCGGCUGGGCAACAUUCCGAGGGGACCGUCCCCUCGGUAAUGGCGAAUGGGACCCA

Variants of: B1
Test: self-cleavage, relative activity (ratio to wild type); higher = more cleavage; co-transcriptional
Would you mind telling me the reported self-cleavage of each entry?
Answers are plain numbers.

# count of solved cases: 4
G25U C36U :: 0.218
A16G C49A :: 1.08
C66U A83C :: 0.298
A45C A70C :: 0.615

Return reported self-cleavage values for all items listed beneath this line.
1. G1A C14G
2. U9A C86U
3. C41G G82A
4. C21G C64A
5. U9C G31U
6. C30U C44A
7. U12G C36G

Result:
1. 0.0665
2. 1.09
3. 0.0811
4. 0.131
5. 0.399
6. 0.117
7. 0
